System: ATP;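 further: ATP exposure 15 min at 22 °C before imaging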
assay_explanation: switch fluorescence ratio, 500 uM ATP over buffer (Cy3 cluster intensity, sum of 5 cycles each) (fold (ratio)); higher = stronger signal-on switching upon ATP binding; sequences stand for … in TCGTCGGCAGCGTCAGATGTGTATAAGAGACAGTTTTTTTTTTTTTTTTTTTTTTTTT…TC
condition_summary: aptamer strand: ATP DNA aptamer (quencher-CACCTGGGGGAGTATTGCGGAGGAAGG + anchor), 100 nM annealed; ATP concentration: 500 uM
Reported switch fluorescence ratio is given for each of the following sequences.
readout: switch fluorescence ratio

[[record]]
sequence_text = "TTGTTTATAA"
readout = "switch fluorescence ratio"
recorded_result = 1.02

[[record]]
sequence_text = "TGTGGAATAA"
readout = "switch fluorescence ratio"
recorded_result = 1.03

[[record]]
sequence_text = "TTTCATCGTA"
readout = "switch fluorescence ratio"
recorded_result = 0.99

[[record]]
sequence_text = "GCGTCGATTA"
readout = "switch fluorescence ratio"
recorded_result = 0.96

[[record]]
sequence_text = "TTATGTGTGT"
readout = "switch fluorescence ratio"
recorded_result = 0.996

[[record]]
sequence_text = "GGGGTGTAGG"
readout = "switch fluorescence ratio"
recorded_result = 0.993

[[record]]
sequence_text = "TGATTTTCTC"
readout = "switch fluorescence ratio"
recorded_result = 1.01

[[record]]
sequence_text = "CGTGCGGGGT"
readout = "switch fluorescence ratio"
recorded_result = 0.991

[[record]]
sequence_text = "AAATTGAAAT"
readout = "switch fluorescence ratio"
recorded_result = 1.01

[[record]]
sequence_text = "ATTGACGAGG"
readout = "switch fluorescence ratio"
recorded_result = 1

[[record]]
sequence_text = "CCCCCACTGG"
readout = "switch fluorescence ratio"
recorded_result = 1.1

[[record]]
sequence_text = "AGAGGGGGCG"
readout = "switch fluorescence ratio"
recorded_result = 1.01

[[record]]
sequence_text = "CCTAGGTCAT"
readout = "switch fluorescence ratio"
recorded_result = 1.12

[[record]]
sequence_text = "TTAGCGTAGG"
readout = "switch fluorescence ratio"
recorded_result = 1.02

[[record]]
sequence_text = "ACCGAGTTCT"
readout = "switch fluorescence ratio"
recorded_result = 0.99

[[record]]
sequence_text = "GCTTATGAAG"
readout = "switch fluorescence ratio"
recorded_result = 1.02

[[record]]
sequence_text = "ATAGGATTTT"
readout = "switch fluorescence ratio"
recorded_result = 0.985

[[record]]
sequence_text = "TTGTATGAGT"
readout = "switch fluorescence ratio"
recorded_result = 0.986

[[record]]
sequence_text = "CGGAATATGG"
readout = "switch fluorescence ratio"
recorded_result = 1.05

[[record]]
sequence_text = "TTTTTTAGAA"
readout = "switch fluorescence ratio"
recorded_result = 1.01

[[record]]
sequence_text = "AACATTGGTC"
readout = "switch fluorescence ratio"
recorded_result = 1.01

[[record]]
sequence_text = "ACGAGGGATG"
readout = "switch fluorescence ratio"
recorded_result = 1.01

[[record]]
sequence_text = "TCTTAACGGC"
readout = "switch fluorescence ratio"
recorded_result = 1.04

[[record]]
sequence_text = "CCCTTGGTTA"
readout = "switch fluorescence ratio"
recorded_result = 1.03

[[record]]
sequence_text = "ATTCAGGCTT"
readout = "switch fluorescence ratio"
recorded_result = 1.03


---

Test system: ATP;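 further: ATP exposure 15 min at 22 °C before imaging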
assay_explanation: switch fluorescence ratio, 500 uM ATP over buffer (Cy3 cluster intensity, sum of 5 cycles each) (fold (ratio)); higher = stronger signal-on switching upon ATP binding; sequences stand for … in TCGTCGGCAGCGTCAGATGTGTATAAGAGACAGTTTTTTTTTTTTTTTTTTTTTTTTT…TC
condition_summary: aptamer strand: ATP DNA aptamer (quencher-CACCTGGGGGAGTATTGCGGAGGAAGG + anchor), 100 nM annealed; ATP concentration: 500 uM
readout: switch fluorescence ratio

[[record]]
sequence_text = "CAGTTAAGTA"
recorded_result = 0.973

[[record]]
sequence_text = "CGTTCAGGGG"
recorded_result = 1.16

[[record]]
sequence_text = "ATGGTAGGGG"
recorded_result = 0.986

